- System: UACC-62 melanoma
- experimentNotes: NCI-60 one-dose screen, 48 h (100 = growth as untreated, 0 = no growth, -100 = all killed)
- testParameters: 10 µM unless noted
About 83,000 compounds went through this panel and 20% of them were active in at least one assay; those are over-represented in the sample as a whole.
Classification by growth | ranges: 1 = under 50%, 2 = from 50% up to 90%, 3 = 90% and over

Record COc1ccc(C2=NN(/C=C3\SC(=O)NC3=Nc3ccc(F)cc3)C(c3ccc(F)cc3)C2)cc1 (stereo not given) — which class? 3

Please let me know in which category the item Cc1cc2c(c(C)c1Cl)C(=O)/C(=C/c1cccc([N+](=O)[O-])c1)O2 belongs. 2

For this compound, which bin applies? Cc1ccc(Nc2nc(N)c3ccccc3n2)cc1Cl 2

State the band of O=c1cc(NC2CCN(CCCc3ccccc3)CC2)c2cc(Cl)ccc2o1 1

For the record COc1cc(/C=C/C(=O)N2c3ccccc3CC2C)c(OC)c2c1OCO2 (stereo not given) , report the class its growth corresponds to. 2

Which class does CCN1C(=O)N(c2ccccc2)C2Nn3c(s/c(=C4\C(=O)N(C(C)C)c5ccccc54)c3=O)=NC21 (stereo not given) fall in? 3

Assign a bin to Nc1ccc(-c2nn3c(CCC(=O)c4nc5ncccc5[nH]4)nnc3s2)c(O)c1 3

Note: place this compound into its band. Item: O=C(Nc1ccccc1O)c1ccc(Oc2cccc(C(=O)Nc3ccccc3O)c2)cc1 1

State the band of COc1cc(/C=C2\CN(C)C/C(=C\c3cc(CN4CCCC4)c(O)c(OC)c3)C2=O)cc(CN2CCCC2)c1O 2

Determine which band this compound sits in: COc1cc(/C=C2\CN(C)C/C(=C\c3cc(CN4CCOCC4)c(O)c(OC)c3)C2=O)cc(CN2CCOCC2)c1O 1

Sort COC(=O)/C(CCC=C(C)C)=C1\[C@@H](OC(C)=O)C[C@@]2(C)[C@H]1C[C@@H](O)[C@H]1[C@@]3(C)CC[C@H](NC(=O)c4cnccn4)[C@@H](C)[C@@H]3CC[C@@]12C into one of the categories. 2

Category lookup for the compound COc1ccc(C(=O)Nc2ccc3nc(N4CCCCC4)cc(C)c3c2)cc1OC 3

Given CCCC(=O)CC(C)=O.CCCC(=O)CC(C)=O.[Cu] , name the class its growth places it in. 3

Band assignment needed for C=C1C(=O)O[C@H]2[C@H]1CC/C(COC(=O)/C=C\C(=O)O)=C\CC[C@@]1(C)O[C@@H]21 please. 3

Dear colleague, I would appreciate it if you could identify the bin for O=C1C(=O)c2c(ccc3ccccc23)-c2ccccc21 and reply at your convenience. 1

The entry to classify is CCCCCCc1cc2cc(-c3nc4ccccc4[nH]3)c(=Nc3ccccc3C)oc2cc1O ; which class holds it? 2

Band for the recorded growth of COc1ccc(-c2nc(N3CCN(C(=O)C4CCCCC4)CC3)c3c4c(sc3n2)CCCC4)cc1 ? 1

----------
- Tested on: COLO 205 colon
- experimentNotes: NCI-60 one-dose screen, 48 h (100 = growth as untreated, 0 = no growth, -100 = all killed)
- testParameters: 10 µM unless noted
- Protocol: Cells are grown in 96 well plates and exposed to the test compound for 48 hours. Compounds are tested at a single concentration, which is 10^-5 M for most compounds. The reported endpoint is percent growth (GI% or GIPRCNT), where numbers from 0 - 100% represent growth inhibition, and numbers from -100% - 0 represent cell death. For example, a value of 40 represents 60% growth inhibition. A value of 0 means no net growth occurred over the course of the experiment. […]
Compounds without any hit were thinned out: in the full panel of roughly 83,000, 20% have a hit.
Values of growth greater than or equal to 90% map to true (1); values below map to false (0).

Does O=S1(=O)N(Cc2ccccc2)[C@@H](Cc2ccccc2)[C@H](O)[C@H](O)[C@H](Cc2ccccc2)N1Cc1ccccc1 have a reported growth of at least 90%? false (0)

Please check the record COc1ccc(C2c3ccc4ccccc4c3Oc3ncn(CCCn4ccnc4)c(=N)c32)cc1OC (stereo not given) and state if its growth is at or above 90%. false (0)

API: above_or_equal(metric=growth, cutoff=90%) for item O=c1oc2ccc(Cl)cc2c(=O)n1-c1ccc(Cl)cc1F false (0)

Given Nc1nc(Nc2cccc(F)c2)nc2ccccc12 , state whether its growth is at least 90%. false (0)

Could you tell me if the measured growth of CCOc1cc2c(cc1OCC)C(c1cc(C)c(O)c(C)c1)NCC2 (stereo not given) reaches 90% or more? true (1)

Say whether Cc1cc(OC(=O)c2ccc([N+](=O)[O-])cc2)nc2[nH]c(=O)sc12 shows growth of 90% or more. true (1)

For this molecule, is measured growth 90% or higher? O=C(CN1C=NC2C(N3CCOCC3)=NC=NC21)c1cccc2ccccc12 (stereo not given) true (1)

Please indicate if the recorded growth for O=c1oc2ccc(I)cc2c(=O)n1-c1ccc(Br)cc1F meets or exceeds 90%. false (0)

Identify whether the reported growth of the following molecule is 90% or greater: COC(=O)c1ccc(NC(=O)CSc2nc3ccccc3c(=O)n2-c2ccccc2)cc1 true (1)
